protocol description: LAP4-GFP expression modulators in yeast, confirmation, cell-based, cherry picks, flow cytometry, mother/daughter gates (AID 2271);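 note: ratio of sample to DMSO plate mean so 100% equals DMSO level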
test context: S. cerevisiae LAP4-GFP strain, 3 h, measured here: daughter cell gate response, at 10 µM, stronger effect = higher value, 100 means same as DMSO control
assay readout: GFP response relative to DMSO (%)
Give bare numbers, in %.

// solved cases for GFP response relative to DMSO follow
{"compound": "CCOc1cc(N2CCOCC2)c(OCC)cc1NC(=O)C(NC(=O)c1ccco1)C(C)C (stereo not given)", "GFP response relative to DMSO (%)": 95.6}
{"compound": "CNc1cc(CSC)nc(SCc2ccc(Cl)cc2Cl)n1", "GFP response relative to DMSO (%)": 118}
{"compound": "Cc1cccc(CS(=O)(=O)c2ncc(Cl)c(C(=O)Nc3nnc(C(C)C)s3)n2)c1", "GFP response relative to DMSO (%)": 108}

Go through the list and state GFP response relative to DMSO for each entry.
1. COc1ccc(C(=O)c2no[n+]([O-])c2C(=O)c2ccc(OC)cc2)cc1
2. Cc1cc(C)n(C(=O)/C(C#N)=N\Nc2ccccc2[N+](=O)[O-])n1
3. CC(C)c1nnc(SCC(=O)N2CCc3ccccc32)n1C
4. O=C(OCCOc1ccccc1)c1n[nH]c2ccccc12
5. COC(=O)c1ccc(CS(=O)(=O)c2ccc(F)cc2)o1

Reply:
[134, 98.7, 95.6, 97.9, 99]

Go through the list and state GFP response relative to DMSO for each entry.
1. CCOC(=O)C1CCCN(c2nc3c(C)cccn3c(=O)c2/C=C(\C#N)C(=O)NCc2ccco2)C1 (stereo not given)
2. O=C(Cn1cc(/C=C\[N+](=O)[O-])c2ccccc21)Nc1ccccc1

Reply:
102
94.4
